# Tested On: Mu-type opioid receptor (Rattus norvegicus)
# Sequence (P33535 whole entry): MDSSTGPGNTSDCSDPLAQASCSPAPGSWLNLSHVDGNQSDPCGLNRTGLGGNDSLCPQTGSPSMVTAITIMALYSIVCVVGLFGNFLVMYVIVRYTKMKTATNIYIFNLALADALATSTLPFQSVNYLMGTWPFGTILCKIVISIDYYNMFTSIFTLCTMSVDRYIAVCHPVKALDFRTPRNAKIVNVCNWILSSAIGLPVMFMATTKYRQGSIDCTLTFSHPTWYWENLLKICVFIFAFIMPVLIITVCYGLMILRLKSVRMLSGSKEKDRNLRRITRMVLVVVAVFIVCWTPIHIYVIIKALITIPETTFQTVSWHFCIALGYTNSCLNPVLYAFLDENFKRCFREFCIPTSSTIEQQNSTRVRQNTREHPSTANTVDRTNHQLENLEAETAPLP
# Procedure Details: Binding affinity against Opioid receptor mu 1 from rat brain membranes using [3H]DAMGO
Measured Parameter: pKi
pKi here is simply -log10 of the concentration when that concentration is written in mol/L.

Test system Mu-type opioid receptor (Rattus norvegicus); read-out pKi; what value for CN1CCC23c4c5ccc(O)c4O[C@H]2c2ncc(-c4ccc(Cl)cc4)cc2C[C@H]3C1C5 (some centres undefined) ?
6.83

Next entry: `O=C(Oc1ccc2[nH]c3c(c2c1)C[C@@]1(O)[C@H]2Cc4ccc(O)c5c4[C@@]1(CCN2CC1CC1)[C@@H]3O5)c1ccccc1`
7.09

Subsequent entry: `O=C(Oc1cccc2c3c([nH]c12)[C@H]1Oc2c(O)ccc4c2[C@@]12CCN(CC1CC1)[C@H](C4)[C@]2(O)C3)c1ccccc1`
6.80

Please answer likewise for `Oc1ccc2c3c1O[C@@H]1c4[nH]c5ccc(/C=C/c6ccccn6)cc5c4C[C@@]4(O)[C@@H](C2)N(CC2CC2)CC[C@]314`
7.12

Ref: ChEMBL document CHEMBL1142710
